assayDetails: Inhibition of bovine trypsin by FRET assay
Parameters: species or system Bos taurus
Where a SMILES comes first, the peptide text is derived from it. [ ]: non-standard residue; d: D form. 2Abz = Nc1ccccc1C(=O)O
quantityMeasured: pKi
Give bare numbers, as −log10 of the molar value.

## Input For N=C(N)NCCC[C@H](NC(=O)[C@H](CC(=O)O)NC(=O)[C@H](CCC(N)=O)NC(=O)[C@H](CCCNC(=N)N)NC(=O)c1ccccc1N)C(=O)O (H-[2Abz]RQDR-OH) , what is its reported pKi?
## Output 5.41

###

testedOn: Suppressor of tumorigenicity 14 protein (Homo sapiens, UniProt Q9Y5Y6)
Sequence (Q9Y5Y6 whole entry): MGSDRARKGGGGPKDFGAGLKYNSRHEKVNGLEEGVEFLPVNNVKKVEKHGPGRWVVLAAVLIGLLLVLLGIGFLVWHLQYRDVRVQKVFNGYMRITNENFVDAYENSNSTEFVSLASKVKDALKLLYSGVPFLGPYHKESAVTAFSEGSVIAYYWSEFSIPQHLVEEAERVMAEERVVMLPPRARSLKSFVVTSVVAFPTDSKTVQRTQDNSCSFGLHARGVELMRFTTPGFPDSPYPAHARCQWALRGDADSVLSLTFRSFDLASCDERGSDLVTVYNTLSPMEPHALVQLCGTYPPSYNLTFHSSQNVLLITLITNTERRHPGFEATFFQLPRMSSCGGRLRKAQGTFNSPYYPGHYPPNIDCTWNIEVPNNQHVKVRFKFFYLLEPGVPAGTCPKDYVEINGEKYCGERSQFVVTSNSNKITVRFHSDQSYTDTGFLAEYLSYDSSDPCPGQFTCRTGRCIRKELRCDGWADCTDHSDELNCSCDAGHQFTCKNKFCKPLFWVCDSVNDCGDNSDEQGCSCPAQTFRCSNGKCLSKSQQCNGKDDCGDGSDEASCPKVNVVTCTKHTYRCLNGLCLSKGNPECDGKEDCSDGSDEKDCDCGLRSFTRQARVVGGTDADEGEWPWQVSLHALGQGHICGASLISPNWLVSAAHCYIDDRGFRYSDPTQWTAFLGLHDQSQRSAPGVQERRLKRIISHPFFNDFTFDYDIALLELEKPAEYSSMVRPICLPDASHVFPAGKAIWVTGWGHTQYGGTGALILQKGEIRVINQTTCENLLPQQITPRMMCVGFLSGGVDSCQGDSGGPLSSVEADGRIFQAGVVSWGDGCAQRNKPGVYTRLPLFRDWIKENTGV
Where a SMILES comes first, the peptide text is derived from it. [ ]: non-standard residue; d: D form. 2Abz = Nc1ccccc1C(=O)O
quantityMeasured: Ki (nM)
Numbers only, in nM.

## Input Record request: Ki value, item N=C(N)NCCC[C@H](NC(=O)[C@H](CC(=O)O)NC(=O)[C@H](CCC(N)=O)NC(=O)[C@H](CCCNC(=N)N)NC(=O)c1ccccc1N)C(=O)O (H-[2Abz]RQDR-OH)
## Output 973

meta.source: ChEMBL document CHEMBL1212842
